target: human GLP-1 receptor (Homo sapiens, UniProt P43220); assay: Functional GLP-1 receptor assay, in vitro potency (CRE luciferase; whole cells); assay type: cell-based; conditions: BHK cells expressing human GLP-1 receptor, 0% HSA; read-out: GLP1R CRE luc 0% HSA EC50 Mean Value
Sequence (P43220 24-463): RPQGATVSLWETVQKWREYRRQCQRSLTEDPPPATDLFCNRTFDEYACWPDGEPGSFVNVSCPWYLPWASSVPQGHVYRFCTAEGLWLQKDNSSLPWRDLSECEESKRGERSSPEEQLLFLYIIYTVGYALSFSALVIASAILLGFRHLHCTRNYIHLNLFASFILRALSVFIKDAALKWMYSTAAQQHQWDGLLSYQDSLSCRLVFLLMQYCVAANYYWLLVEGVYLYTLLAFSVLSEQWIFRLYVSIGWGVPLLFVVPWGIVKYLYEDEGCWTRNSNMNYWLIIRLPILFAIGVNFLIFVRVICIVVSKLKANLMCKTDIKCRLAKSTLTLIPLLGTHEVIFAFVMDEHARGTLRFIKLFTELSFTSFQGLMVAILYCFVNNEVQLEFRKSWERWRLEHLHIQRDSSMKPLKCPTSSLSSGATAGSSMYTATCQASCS
Where no end group is shown, it is not given here.
Decide using EC50 alone. Strictly below 0.04 nM: yes. Equal to or above 0.04 nM: no.

Substance | Class name
HAEGTFTSDVSSYLEGQAAKEFIAWLVEHVKEFL-NH2 [Compound 140] | no
HAEGTFTSDVSSYLEEEAVKEFIAWLVEKVKEF-NH2 [Compound 132] | yes
HAEGTFTSDVSSYLEGQAAKEFIAWLVEKVKEFY-NH2 [Compound 131] | yes
H-HAEGTFTSDVSSYLEGQAAKEFIAWLVEKVKEFLDK-OH [Compound 129] | no
HAEGTFTSDVSSYLEGQAAKEFIAWLVEKVGEFL-NH2 [Compound 108] | no
HAEGTFTSDLSKQMEEEAVREFIEWLKNKVLEFL-NH2 [Compound 69] | yes
